These measurements were taken from patent US20140127175A1.

TARGET_ENTITY: human glucagon-like peptide 1 receptor (human, UniProt P43220 24-463)
Sequence (P43220 24-463): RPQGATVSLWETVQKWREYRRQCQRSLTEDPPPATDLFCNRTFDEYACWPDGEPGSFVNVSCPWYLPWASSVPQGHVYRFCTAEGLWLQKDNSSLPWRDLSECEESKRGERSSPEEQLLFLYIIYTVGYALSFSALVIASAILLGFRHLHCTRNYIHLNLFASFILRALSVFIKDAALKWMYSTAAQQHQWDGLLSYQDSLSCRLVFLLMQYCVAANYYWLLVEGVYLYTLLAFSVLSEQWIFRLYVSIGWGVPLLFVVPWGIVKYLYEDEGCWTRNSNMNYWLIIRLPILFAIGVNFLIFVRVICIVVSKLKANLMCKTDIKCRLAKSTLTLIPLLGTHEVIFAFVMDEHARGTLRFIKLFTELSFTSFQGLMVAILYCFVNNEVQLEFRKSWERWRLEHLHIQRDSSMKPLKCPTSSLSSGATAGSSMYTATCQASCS
EXPERIMENT_DESCRIPTION: cell-based or functional assay
MEASURED_QUANTITY: EC50 of cAMP formation, HEK293 cells expressing human GLP-1R (nM)
Answer in nM, number only, no unit symbol.

BINDER	VALUE_UNITS	RECORDED_VALUE
H-HSQGTFTSDYSKYLDRARADDFVEWLKST-NH2 [ZP2649]	nM	0.1
H-HSQGTFTSDYSKYLDRARADDFVAWLKSA-NH2 [ZP2634]	nM	0.2
H-HSQGTFTSDYSKYLDRARADDFVAWLKST-NH2 [ZP2495]	nM	0.23
H-HSQGTFTSDYSKYLDRARAHDFVAWLKST-NH2 [ZP2648]	nM	0.1

Ask: Given the binder H-HSQGTFTSDYSKYLDRARADDFVAWLERA-NH2 [ZP2650] , what is its reported EC50 of cAMP formation, HEK293 cells expressing human GLP-1R?
Result: 0.8

Ask: Fill blank: measured EC50 of cAMP formation, HEK293 cells expressing human GLP-1R of the binder H-HSQGTFTSDYSKYLDRARAEDFVAWLKST-NH2 [ZP2637] is ____.
Result: 0.1

Ask: Query: EC50 of cAMP formation, HEK293 cells expressing human GLP-1R; subject: H-HSQGTFTSDYSKYLDRARADDFVAWLKEA-NH2 [ZP2635]
Result: 0.2
